# EXPERIMENTAL_TARGET: T1, hu-IL-36γ (human, UniProt Q9NZH8 18-169)
# T1 sequence: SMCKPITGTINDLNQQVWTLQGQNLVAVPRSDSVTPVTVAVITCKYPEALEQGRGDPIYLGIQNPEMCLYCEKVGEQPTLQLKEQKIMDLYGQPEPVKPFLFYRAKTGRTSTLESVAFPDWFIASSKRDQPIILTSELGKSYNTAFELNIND
# ASSAY: cell-based or functional assay
Assign IC50, HEK Blue SEAP reporter assay to each entry below.
Note: unit nM is implicit; provide only the numeric part.

# input binder: mAb1.0 IgG (antibody, V domains shown) VH: QVQLVESGGGVVQPGRSLRLSCAASGFSFSAYAMHWVRQAPGKGLEWVAVISYDGTNEYYADSVKGRFTISRDNSKNTLYLQMNSLRAEDTAVYYCARGIRIFTSYFDSWGQGTLVTVSS VL: QSVLTQPPSVSGAPGQRVTISCTGSSSNIGAHYDVHWYQQLPGTAPKLLIYSNNNRPSGVPDRFSGSKSGTSASLAITGLQAEDEADYYCQSYDYSLRGYVFGGGTKLTVL ; wanted: its IC50, HEK Blue SEAP reporter assay
5.3

Next entry: mAb4.0 IgG (antibody, V domains shown) VH: QLQLQESGPGLVKPSETLSLTCTVSGGSIGSRSYYWGWIRQPPGKGLEWIGSIHYSGTTYYNPSLKSRVTISVDTSKNQFSLKLSSVTAADTAVYYCARVAPSYPRVFDYWGQGTLVTVSS VL: QSVLTQPPSVSGAPGQRVTISCTGSSSNIGAGYDVHWYQQLPGTAPKLLIYGNRNRPSGVPDRFSGSKSGTSASLAITGLQAEDEADYYCQSYDYSLRVYVFGGGTKLTVL
52

Next entry: mAb3.0 IgG (antibody, V domains shown) VH: QLQLQESGPGLVKPSETLSLTCTVSGGSISSTSYYWGWIRQPPGKGLEWIGSIHYSGNTYYNPSLKSRVTISVDTSKNQFSLKLSSVTAADTAVYYCARVHYGGYIPRRFDHWGQGTLVTVSS VL: QSVLTQPPSVSGAPGQRVTISCTGSSSNIGAGYDVHWYQQLPGTAPKLLIYGNTNRPSGVPDRFSGSKSGTSASLAITGLQAEDEADYYCQSYDYSLRGYVFGGGTKLTVL
30
